A collection of molecules and their measured Kd
# tested-target: HPPK (Escherichia coli)
# Sequence (P26281 whole entry): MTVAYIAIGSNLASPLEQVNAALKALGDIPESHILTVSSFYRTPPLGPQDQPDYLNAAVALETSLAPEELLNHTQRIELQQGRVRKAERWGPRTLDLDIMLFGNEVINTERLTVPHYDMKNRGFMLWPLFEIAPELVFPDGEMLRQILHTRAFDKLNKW
# test: HPPK binding study by fluorometric titration (Kd)
# test-conditions: room temperature, 100 mM Tris-HCl pH 8.3, inhibitor titrated with HPPK, fluorescence, nonlinear least-squares analysis; read-out: Kd
Supply the numeric figure in µM, leaving out any unit text.

- CC1(C)Nc2nc(N)[nH]c(=O)c2N=C1C(=O)NCCN1CC[C@@H](SC[C@H]2O[C@@H](n3cnc4c(N)ncnc43)[C@H](O)[C@@H]2O)C[C@@H]1C(=O)O: 0.3

Now for another entry.
Input line: Report value: Kd, system: HPPK (Escherichia coli), molecule: CC1(C)Nc2nc(N)[nH]c(=O)c2N=C1C(=O)NC1CCN(CCSC[C@H]2O[C@@H](n3cnc4c(N)ncnc43)[C@H](O)[C@@H]2O)CC1
Output line: 11.5

###

A collection of molecules and their measured Kd
# tested-target: HPPK (Escherichia coli)
# test: HPPK binding study by fluorometric titration (Kd)
Supply the numeric figure in µM, leaving out any unit text.

Input line: Determine its reported Kd: CC1(C)Nc2nc(N)[nH]c(=O)c2N=C1C(=O)NCCN(CC(=O)NC[C@H]1O[C@@H](n2cnc3c(N)ncnc32)C(O)C1O)CP(=O)(O)O (stereo partly drawn)
Output line: 2.9

Input line: Determine its reported Kd: CC1(C)Nc2nc(N)[nH]c(=O)c2N=C1C(=O)NCCN(CCSC[C@H]1O[C@@H](n2cnc3c(N)ncnc32)[C@H](O)[C@@H]1O)CP(=O)(O)O
Output line: 0.4

Input line: Determine its reported Kd: CC1(C)Nc2nc(N)[nH]c(=O)c2N=C1C(=O)NCC(=O)N(CC(=O)NC[C@H]1O[C@@H](n2cnc3c(N)ncnc32)C(O)C1O)CP(=O)(O)O (stereo partly drawn)
Output line: 1.8
